For each entry below, report its PBM binding z-score value.
- System: PPARg:RXRa 30nM:10nM, anti-RXR (NR concentration 30 nM, RXRa partner concentration 10 nM)
- Experimental Protocol: PBM binding z-score (relative to random genomic background probes); higher = stronger binding; sequences stand for … in GC…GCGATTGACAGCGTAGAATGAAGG
Number only, no unit.

Q. PBM binding z-score for `CCTATTAGTTGACCATAAGGGCAACCAAAGCTCG` ?
A. 0.262

Q. PBM binding z-score for `TCATATAGGTAAATGCTAGCTGAAAGTCCGATCT` ?
A. 3.71

Q. PBM binding z-score for `CGTACTGGGCCAAAGGTCATTGATTCCAATGCTC` ?
A. 10.2

Q. PBM binding z-score for `AGAACTAGGGCACGCTGAGTTGATAGCAGAGTAG` ?
A. 1.85

Q. PBM binding z-score for `ATACCAAGGTGATCGTGAGGGCGTTGATACTAAC` ?
A. -0.112

Q. PBM binding z-score for `GATCGGAGGACAAGGTCAGAGCTTTGTCCGTAGA` ?
A. -0.141

Q. PBM binding z-score for `TCTTGTAGATCAACAGGAGGTTAAGAAAGATCGA` ?
A. 2.19

Q. PBM binding z-score for `ACCTCTAGGTAAAGTTCAGTGAAAGATCGATAGA` ?
A. 0.584

Q. PBM binding z-score for `ATCGAAAGGTCGAAGGTGAGGATACCCACCCGAA` ?
A. 2.25

Q. PBM binding z-score for `TCTCGTAGATCAAAGGTTAAGAAAGCCGAAGCCT` ?
A. 4.84

Q. PBM binding z-score for `TCTTGTAGATCAACAGGAGGTCAAGAAAGATCGA` ?
A. 2.55

Q. PBM binding z-score for `ATCTCTAGTTAAGACTCAGTTCAGTGAAGAACGC` ?
A. 0.293

Q. PBM binding z-score for `ATCGAAAGGTCGTGAGATGAGTATACAGAAAGGC` ?
A. 1.53
